Below, each entry is listed alongside its reported inhibition.
Run description: growth inhibition, single agents and combos, HTB85, cell-based, BGB or cisplatin IC20 combos, synergistic combos for chromothripsis tumors (AID 1671453);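 note: cells exposed for 96 hours before readout; 0% = vehicle DMSO and 100% = high DMSO killing control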
Condition: HTB85 osteosarcoma cells, drug combinations, measured here: with BGB IC20, at 0.5 µM, stronger effect = higher value
Non-standard residues stand in square brackets, D forms with d. Residues, ends and D or L forms follow the SMILES beside them. Dolaproine = CO[C@@H]([C@@H]1CCCN1)[C@@H](C)C(=O)O; Dil = CC[C@H](C)[C@H](NC)[C@@H](CC(=O)O)OC; NMeV = CN[C@H](C(=O)O)C(C)C
Field format: number, assumed %, no unit text.

Solved entries:
In: For the compound shown here, "O=C1C(=Cc2cccnc2)C(=O)c2ccccc21" , give the reported inhibition.
Out: 0.006

In: May I ask what inhibition has been recorded for C=C(C)C1CCC2(C(=O)O)CCC3(C)C(CCC4C5(C)CCC(O)C(C)(C)C5CCC43C)C12 (stereo not drawn) ?
Out: -17.7

In: If you can, please state the reported inhibition value of "Cc1cc(C)cc(C(=O)NOCCCCCC(=O)NO)c1" .
Out: 4.55

In: Param item = O=c1ccn(C2CC(O)C(CO)O2)c(=O)[nH]1 (stereo not drawn) ; retrieve measured inhibition.
Out: -39.5

In: Quick one: inhibition of CC[C@H](C)[C@@H]([C@@H](CC(=O)N1CCC[C@H]1[C@H](OC)[C@@H](C)C(=O)N[C@@H](Cc1ccccc1)C(=O)O)OC)N(C)C(=O)[C@@H](NC(=O)[C@@H](NC)C(C)C)C(C)C (H-[NMeV]V[Dil][Dolaproine]F-OH) ?
Out: 69.6

In: Given the entry "C[C@@H]1O[C@@H](O[C@@H]2[C@@H](O)[C@H](OCCc3ccc(O)c(O)c3)O[C@H](CO)[C@H]2OC(=O)C=Cc2ccc(O)c(O)c2)[C@H](O)[C@H](O)[C@H]1O" , report its measured inhibition.
Out: 11

Further cases:
In: # lookup: inhibition of CC(C=CC(=O)NO)=CC(C)C(=O)c1ccc(N(C)C)cc1 (stereo not drawn)
Out: 97.4

In: Need inhibition, item CCC(Sc1nnc2c3ccccc3n(CC)c2n1)C(=O)Nc1ccccc1OC (stereo not drawn)
Out: 6.64
